# method.description: NCI Yeast Anticancer Drug Screen. Data for the rad50 strain (AID 155);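 further: 0% = growth of vehicle-only cultures of the same strain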
# details: S. cerevisiae rad50 strain growth inhibition; at 3.7 µM; active compounds read high
About 79,000 compounds went through this panel and 15% of them were active in at least one assay; those are over-represented in the sample as a whole.

compound	growth inhibition, %
CCNc1ccc2c(c1)C(=O)N(OS(C)(=O)=O)C2=O	2
O=C1c2ccccc2CCC1(Br)Br	22
CN(CC(=O)O)c1ccc(/C=C/c2ccnc3ccccc23)cc1	-1
CCCCCC(=O)c1ccc(O)cc1O	-4
S=C(S)NCC1CCC(CNC(=S)S)CC1 (configuration not stated)	3
CNc1ccc(Cc2c[nH]c3ccccc23)cc1	-48
c1ccc(N2N=C3N(c4ccccc4)C2N3c2ccccc2)cc1	7
Oc1ccc(Br)cc1C=NC1CCCCC1	-18
c1ccc2c(c1)ccc1c3ccncc3ccc21	74
Cc1ccc2occ/c(=N\Nc3ccccc3)c2c1	-7
O=C(N/N=C\c1c(Cl)cccc1Cl)N/N=C/c1c(Cl)cccc1Cl	12
CCc1nc(N)nc(N)c1-c1ccc(NCCCCCCN)c([N+](=O)[O-])c1	-2
CCOC(=O)CNC(=O)c1[nH]cnc1/N=N/N(C)C	4
O=NN(CCCl)C(=O)NC1CCCCC1	12
Clc1c(Cl)c(Cl)c2c(nnn2C2CCCO2)c1Cl (configuration not stated)	-1
CN(C)CC1CCCc2ccccc2C1=O (configuration not stated)	-2
CCN(CC)N=Nc1c(C(N)=O)n[nH]c1C	-8
CC(=O)CC(=O)/C=C/c1cccs1	-5
CC(=O)Oc1ccc(N2C(=O)C3c4[nH]c5ccccc5c4C4CCC(C(C)(C)C)CC4C3C2=O)cc1 (configuration not stated)	91
C=Cc1cnc([N+](=O)[O-])n1C	17
Cc1c(-c2ccccc2)[nH]c2ccccc12	-8
C/C(=N\NC(=S)NC1CCCC1)c1ccccn1	77
O=Nn1c2ccccc2c2cc([N+](=O)[O-])ccc21	24
CCCCOC(=O)CSSCC(=O)OCCCC	2
S=C1SCN(CCc2ccccc2)CN1CCc1ccccc1	5
CSc1s[s+]c(SC)c1-c1ccccc1	2
CCCCCCCCCCCCCC(=O)OC(C)CCC1CCCO1 (configuration not stated)	0
